# Test system: U-251
# Test: Antiproliferative activity against human U251 cells assessed as concentration required for total cell growth inhibition after 48 hrs by SRB assay
# Format: functional
# Condition Details: U-251, 48 h
Mark 1 for TGI under 70 µM, -1 if at or over.

CC1(/C=C/c2ccccc2)C=CC(=O)O1 (stereo unspecified) :: -1

From here, focus on the item given below.
Q: Please let me know if CC1(/C=C/c2cccc(O)c2)C=CC(=O)O1 (stereo unspecified) shows TGI below 70 µM.
A: -1

====

# Test system: 786-0
# Test: Antiproliferative activity against human 786-0 cells assessed as concentration required for total cell growth inhibition after 48 hrs by SRB assay
# Assay type: functional
# Condition Details: 786-0, 48 h
Measurement Name: TGI (µM)
Enter your answer as a number in µM; do not include the unit.

Example compounds with recorded TGI:
C[C@]1(/C=C/c2ccccc2)CC=CC(=O)O1 :: 68.7
CC1(/C=C/c2ccccc2C(F)(F)F)C=CC(=O)O1 (stereo not given) :: 27.9
COc1cc(/C=C/C2(C)C=CC(=O)O2)cc(OC)c1O (stereo not given) :: 108
COc1cc(/C=C/C2(C)C=CC(=O)O2)cc(OC)c1OC (stereo not given) :: 116

Q: Find the recorded TGI belonging to COc1ccc(/C=C/C2(C)C=CC(=O)O2)c(OC)c1OC (stereo not given) and report it.
A: 132

Q: Now consider CC1(/C=C/c2ccccc2)C=CC(=O)O1 (stereo not given) .
A: 170

Q: Now consider CC1(/C=C/c2ccc(O)cc2)C=CC(=O)O1 (stereo not given) .
A: 143

Q: Now consider COc1cc(OC)c(/C=C/C2(C)C=CC(=O)O2)c(OC)c1 (stereo not given) .
A: 459

Q: Now consider CC1(/C=C/c2ccc(C(F)(F)F)cc2)C=CC(=O)O1 (stereo not given) .
A: 34

Q: Now consider CC1(/C=C/c2ccccc2O)C=CC(=O)O1 (stereo not given) .
A: 136

Q: Now consider `COc1cccc2c1C(=O)c1c(O)c3c(c(O)c1C2=O)C[C@@](O)(C(=O)CO)C[C@@H]3O[C@H]1C[C@H](N)[C@H](O)[C@H](C)O1` .
A: 1

Q: Now consider COc1cc(OC)c(OC)cc1/C=C/C1(C)C=CC(=O)O1 (stereo not given) .
A: 205

Q: Now consider COc1cccc(/C=C/C2(C)C=CC(=O)O2)c1 (stereo not given) .
A: 70

Q: Now consider COc1ccc(/C=C/C2(C)C=CC(=O)O2)c(OC)c1 (stereo not given) .
A: 108

Q: Now consider CC1(/C=C/c2cccc(O)c2)C=CC(=O)O1 (stereo not given) .
A: 196

====

# Test system: U-251
# Test: Antiproliferative activity against human U251 cells assessed as concentration required for total cell growth inhibition after 48 hrs by SRB assay
# Type: functional
# Condition Details: U-251, 48 h
TGI class ranges: lower segment (below 40 µM), middle segment (40 µM to below 100 µM), upper segment (100 µM or more)

Consider the worked cases shown below.
CC1(/C=C/c2ccc(C(F)(F)F)cc2)C=CC(=O)O1 (centres undefined) :: lower segment
CC1(/C=C/c2ccc(F)cc2)C=CC(=O)O1 (centres undefined) :: middle segment
COc1ccc(/C=C/C2(C)C=CC(=O)O2)c(OC)c1OC (centres undefined) :: middle segment
COc1ccc(/C=C/C2(C)C=CC(=O)O2)cc1OC (centres undefined) :: upper segment
O=C1C=CC[C@H](/C=C/c2ccccc2)O1 :: lower segment
COc1ccc(/C=C/C2(C)C=CC(=O)O2)cc1 (centres undefined) :: upper segment

From here, focus on the item given below.
Q: Looking at COc1cc(OC)c(OC)cc1/C=C/C1(C)C=CC(=O)O1 (centres undefined) , which class would you pick?
A: upper segment

====

This listing pairs molecules with measured TGI.
# Tested on: PC-3
# Test: Antiproliferative activity against human PC3 cells assessed as concentration required for total cell growth inhibition after 48 hrs by SRB assay
# Format: functional
# Condition Details: PC-3, 48 h

COc1cccc2c1C(=O)c1c(O)c3c(c(O)c1C2=O)C[C@@](O)(C(=O)CO)C[C@@H]3O[C@H]1C[C@H](N)[C@H](O)[C@H](C)O1 :: 2.5 µM
CC1(/C=C/c2cccc(O)c2)C=CC(=O)O1 (configuration not stated) :: 98.8 µM
COc1cccc(/C=C/C2(C)C=CC(=O)O2)c1 (configuration not stated) :: 31.6 µM
C[C@]1(/C=C/c2ccccc2)CC=CC(=O)O1 :: 31.7 µM
COc1cc(OC)c(OC)cc1/C=C/C1(C)C=CC(=O)O1 (configuration not stated) :: 184 µM

Q: Find the recorded TGI belonging to CC1(/C=C/c2ccc(C(F)(F)F)cc2)C=CC(=O)O1 (configuration not stated) and report it.
A: 13.1 µM

Q: Now consider COc1ccc(/C=C/C2(C)C=CC(=O)O2)c(OC)c1OC (configuration not stated) .
A: 90 µM

====

# Test: Antiproliferative activity against human NCI-ADR-RES cells assessed as concentration required for total cell growth inhibition after 48 hrs by SRB assay
# Assay type: functional
TGI below 100 µM gives NOT MET; TGI at or above it gives MET.

Consider the worked cases shown below.
COc1cc(OC)c(OC)cc1/C=C/C1(C)C=CC(=O)O1 (stereo not given) :: MET
COc1ccc(/C=C/C2(C)C=CC(=O)O2)cc1OC (stereo not given) :: MET
O=C1C=CC[C@H](/C=C/c2ccccc2)O1 :: NOT MET
CC1(/C=C/c2ccccc2)C=CC(=O)O1 (stereo not given) :: MET
COc1ccc(/C=C/C2(C)C=CC(=O)O2)c(OC)c1 (stereo not given) :: MET
CC1(/C=C/c2ccc(F)cc2)C=CC(=O)O1 (stereo not given) :: NOT MET
COc1cccc2c1C(=O)c1c(O)c3c(c(O)c1C2=O)C[C@@](O)(C(=O)CO)C[C@@H]3O[C@H]1C[C@H](N)[C@H](O)[C@H](C)O1 :: NOT MET
CC1(/C=C/c2ccc(O)cc2)C=CC(=O)O1 (stereo not given) :: MET
COc1ccccc1/C=C/C1(C)C=CC(=O)O1 (stereo not given) :: NOT MET
CC1(/C=C/c2ccc(C(F)(F)F)cc2)C=CC(=O)O1 (stereo not given) :: NOT MET

From here, focus on the item given below.
Q: Hello, I need to know if CC1(/C=C/c2cccc(O)c2)C=CC(=O)O1 (stereo not given) has measured TGI not below 100 µM. Thanks!
A: MET

====

# Test system: HaCaT
# Test: Antiproliferative activity against human HaCaT cells assessed as concentration required for total cell growth inhibition after 48 hrs by SRB assay
# Type: functional
This listing pairs compounds with measured TGI.
Enter your answer as a number in µM; do not include the unit.

COc1cc(/C=C/C2(C)C=CC(=O)O2)cc(OC)c1O (centres undefined) :: 64.4
COc1ccc(/C=C/C2(C)C=CC(=O)O2)c(OC)c1OC (centres undefined) :: 217
CC1(/C=C/c2ccccc2)C=CC(=O)O1 (centres undefined) :: 119
COc1ccc(/C=C/C2(C)C=CC(=O)O2)cc1 (centres undefined) :: 316
CC1(/C=C/c2ccc(O)cc2)C=CC(=O)O1 (centres undefined) :: 81.2

Q: Could you share what TGI was measured for CC1(/C=C/c2ccccc2O)C=CC(=O)O1 (centres undefined) , tested on HaCaT?
A: 57.3

Q: Now consider `C[C@]1(/C=C/c2ccccc2)CC=CC(=O)O1` .
A: 50.7

Q: Now consider CC1(/C=C/c2ccc(F)cc2)C=CC(=O)O1 (centres undefined) .
A: 47.5

Q: Now consider `O=C1C=CC[C@H](/C=C/c2ccccc2)O1` .
A: 13.4

====

# Test system: U-251
# Test: Antiproliferative activity against human U251 cells assessed as concentration required for total cell growth inhibition after 48 hrs by SRB assay
# Format: functional
# Condition Details: U-251, 48 h
Measurement Name: TGI (µM)
Enter your answer as a number in µM; do not include the unit.

Example compounds with recorded TGI:
CC1(/C=C/c2ccccc2O)C=CC(=O)O1 (centres undefined) :: 70.9
COc1cc(OC)c(/C=C/C2(C)C=CC(=O)O2)c(OC)c1 (centres undefined) :: 193

Now for the compound whose TGI we want.
Q: Find the recorded TGI belonging to `COc1cccc2c1C(=O)c1c(O)c3c(c(O)c1C2=O)C[C@@](O)(C(=O)CO)C[C@@H]3O[C@H]1C[C@H](N)[C@H](O)[C@H](C)O1` and report it.
A: 2.1

====

# System: 786-0
# Test: Antiproliferative activity against human 786-0 cells assessed as concentration required for total cell growth inhibition after 48 hrs by SRB assay
# Assay type: functional
# Condition Details: 786-0, 48 h
Measurement Name: TGI

COc1ccc(/C=C/C2(C)C=CC(=O)O2)cc1 (stereo not given) :: > 1000 µM

Q: Find the recorded TGI belonging to COc1ccccc1/C=C/C1(C)C=CC(=O)O1 (stereo not given) and report it.
A: 35.4 µM

Q: Now consider CC1(/C=C/c2ccc(F)cc2)C=CC(=O)O1 (stereo not given) .
A: 101 µM

Q: Now consider COc1ccc(/C=C/C2(C)C=CC(=O)O2)cc1OC (stereo not given) .
A: 22.9 µM

Q: Now consider `O=C1C=CC[C@H](/C=C/c2ccccc2)O1` .
A: 13.9 µM
